test_description: Pharmacokinetic (PK) test in mice
Format: in vivo
assay_conditions: mouse, plasma; male balb/c mice; intravenous 1 mg/kg, gavage 3 mg/kg; read-out: T1/2 (half-life) (converted)
value_type: half-life (h)
Give bare numbers, in h.

// lookup half-life for Cn1cc(-c2cn3nccc3c(-c3cnn([C@]4(CC#N)CC5(C[C@H](C#N)C5)C4)c3)n2)cn1 (stereo partly shown)
2.39

###

test_description: Pharmacokinetic (PK) test in mice
Format: in vivo
assay_conditions: mouse, plasma, oral; male balb/c mice; intravenous 1 mg/kg, gavage 3 mg/kg
value_type: bioavailability (%)
One number for each entry, in %.

State the recorded bioavailability for this entry: Cn1cc(-c2cn3nccc3c(-c3cnn([C@]4(CC#N)CC5(C[C@H](C#N)C5)C4)c3)n2)cn1 (stereo partly shown)
88.7
